Catalogue of compounds with associated IC50
# Test system: Lewis lung carcinoma (LLC) cells
# PROTOCOL: Lewis lung carcinoma in vitro culture viability, Cell Titer Glo Assay
# Format: cell-based, mouse
# EXPERIMENTAL PARAMETERS: Mus musculus, Lewis lung carcinoma
Express the result in µM but write the number alone.

{"TEST SMILES": "CC1(C)CCC(C)(C)c2cc(C(/C=C/c3ccc(C(=O)O)cc3F)=N/O)ccc21", "TARGET OR TEST SYSTEM": "Lewis lung carcinoma (LLC) cells", "READOUT KIND": "IC50", "MEASURED VALUE": 46}
{"TEST SMILES": "CC1(C)CCC(C)(C)c2cc(C(/C=C/c3ccc(C(=O)O)cc3)=N/O)ccc21", "TARGET OR TEST SYSTEM": "Lewis lung carcinoma (LLC) cells", "READOUT KIND": "IC50", "MEASURED VALUE": 45}

Next, consider the following compound.
What value of IC50 has been reported for the following compound? CCc1oc2ccc(C(/C=C/c3ccc(C(=O)O)cc3F)=N/O)cc2c1C(C)(C)C
96
